Data provenance is the supplement of paper PMC7125110.

B1: glmS ribozyme (parent)
chain: AUAAAAGCGCCAGAACUACAGAAAUGUAGUUGACGAGGAGGAGGUUUAUCGAAUUUUCGGCGGAUGCCUCCAAA

- Variants of: B1
- test: self-cleavage kobs at 2500 uM GlcN6P; higher = faster cleavage; RNA array
- reported.conditions: with glucosamine-6-phosphate
This sample holds only a part of the variants without activity.
endpoint.label: self-cleavage kobs at 2500 uM GlcN6P (s⁻¹)
# number only, unit s⁻¹ dropped from output

Query: Give the measured self-cleavage kobs at 2500 uM GlcN6P for G29U G41A
Reply: 0.000155

Query: Give the measured self-cleavage kobs at 2500 uM GlcN6P for G13U A15C C58G
Reply: 7.7e-05

Query: Give the measured self-cleavage kobs at 2500 uM GlcN6P for G40C U56C C71A
Reply: 9.43e-05

Query: Give the measured self-cleavage kobs at 2500 uM GlcN6P for C11A U45A U56A
Reply: 9.98e-05

Query: Give the measured self-cleavage kobs at 2500 uM GlcN6P for A52C U57C C68G C70G
Reply: 0.000133

Query: Give the measured self-cleavage kobs at 2500 uM GlcN6P for G66U C67A
Reply: 0.00197

Query: Give the measured self-cleavage kobs at 2500 uM GlcN6P for `C68G`
Reply: 9.11e-05

Query: Give the measured self-cleavage kobs at 2500 uM GlcN6P for C10A A12C U56A
Reply: 0.000306
